measured target: Citrate synthase, peroxisomal (Saccharomyces cerevisiae (strain ATCC 204508 / S288c))
test description: CIT2-GFP expression modulators in yeast, dose response, flow cytometry, MLPCN hits (AID 2744)
measurement context: S. cerevisiae CIT2-GFP strain, 3 h, at 33 µM (top of the series)
Calls of active or inactive are those of the source.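 Rule for the calls: active = fitted half-maximal concentration for changing reporter fluorescence at or below a set limit; inactive = the rest.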
value type: GFP fluorescence, higher = induction

COc1ccc2c(c1)c1nnc(SC)nc1n2C: inactive
Clc1ccc(N=c2ssnc2Cl)cc1: inactive
O=C(Nc1ccccc1)c1nnsc1S(=O)(=O)c1ccc(Cl)cc1: inactive
COc1ccccc1C(=O)NNC(=S)NC(=O)c1cccs1: inactive
COc1cc(N=c2ssnc2Cl)cc(OC)c1: inactive
COc1cccc(/C=N/Nc2ccc([N+](=O)[O-])cn2)c1O: inactive

Q: Provide only the value of recorded GFP fluorescence, higher = induction for O=C(O)/C=C/C(=O)c1ccc2c(c1)CCc1ccccc1-2
Ans: inactive

---

Task for the reader: assign each of the following compounds its reported pEC50.
measured target: Citrate synthase, peroxisomal (Saccharomyces cerevisiae (strain ATCC 204508 / S288c)) (UniProt P08679)
Sequence (P08679 whole entry, looked up): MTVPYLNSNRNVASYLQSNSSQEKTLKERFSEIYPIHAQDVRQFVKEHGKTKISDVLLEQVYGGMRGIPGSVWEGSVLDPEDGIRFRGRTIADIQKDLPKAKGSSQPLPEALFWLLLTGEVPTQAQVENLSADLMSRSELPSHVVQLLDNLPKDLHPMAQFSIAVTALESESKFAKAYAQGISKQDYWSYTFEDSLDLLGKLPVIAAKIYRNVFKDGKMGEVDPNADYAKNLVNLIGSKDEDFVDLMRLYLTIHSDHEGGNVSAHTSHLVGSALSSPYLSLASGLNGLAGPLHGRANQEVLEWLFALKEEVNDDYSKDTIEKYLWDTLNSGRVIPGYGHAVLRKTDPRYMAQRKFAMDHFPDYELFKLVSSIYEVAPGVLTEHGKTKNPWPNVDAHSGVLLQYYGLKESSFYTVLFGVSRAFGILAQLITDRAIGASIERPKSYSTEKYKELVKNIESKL
test description: CIT2-GFP expression modulators in yeast, dose response, flow cytometry, MLPCN hits (AID 2744)
measurement context: S. cerevisiae CIT2-GFP strain, flow cytometry fluorescence, 3 h
Recall that pEC50 is obtained by taking minus log10 of the concentration measured in molar.

Q: Provide only the value of recorded pEC50 for N/C(=N\OC(=O)c1ccccc1Cl)c1ccc(Cl)cc1
Ans: 5.21

Q: Provide only the value of recorded pEC50 for N=C1/C(=C\c2coc3ccccc3c2=O)C(=O)N=C2SC(c3ccncc3)=NN12
Ans: 4.88

Q: Provide only the value of recorded pEC50 for N/C(=N\OC(=O)c1ccc(Cl)cc1Cl)c1ccccc1
Ans: 5.38

Q: Provide only the value of recorded pEC50 for Cc1ccc(NC(=O)ON=C2CCCC2)cc1
Ans: 5.42

Q: Provide only the value of recorded pEC50 for CC1(C)C[C@H]2C=C(C=O)[C@]3(C=O)C[C@]3(C)[C@H]2C1
Ans: 5.85

Q: Provide only the value of recorded pEC50 for N/C(Cc1ccc(Cl)c(Cl)c1)=N\OC(=O)c1cccs1
Ans: 4.99

---

measured target: Citrate synthase, peroxisomal (Saccharomyces cerevisiae (strain ATCC 204508 / S288c))
test description: CIT2-GFP expression modulators in yeast, dose response, flow cytometry, MLPCN hits (AID 2744)
measurement context: S. cerevisiae CIT2-GFP strain, 3 h, at 33 µM (top of the series)
Active and inactive are the calls of the source.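 How the source made its calls: active means fitted half-maximal concentration for changing reporter fluorescence at or below a set limit; inactive means the rest.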
value type: GFP fluorescence, higher = induction

O=C(/C=C/c1ccccn1)c1ccc(Br)cc1O: inactive
CCc1cccc2sc(N3CCN(C(=O)c4ccc([N+](=O)[O-])o4)CC3)nc12: inactive
COc1ccccc1OCCCc1c(C)n[nH]c1C: inactive
O=C(COc1c(Br)cc(Br)c2cccnc12)N1CCc2ccccc2C1: inactive
Cc1c(NC2=C(Cl)C(=O)N(c3ccccc3Cl)C2=O)c(=O)n(-c2ccccc2)n1C: inactive
COc1ccccc1[C@]1(C)ON(c2ccccc2C(F)(F)F)C1=O: inactive
Cc1ccc(/C=C/C(=O)c2ccc([N+](=O)[O-])o2)cc1: inactive
CCN(CC)c1ccc(/C=C2/C(=O)c3ccc(C(=O)O)cc3C2=O)cc1: inactive
Cc1cc(=O)oc2cc(Oc3ccc([N+](=O)[O-])cc3C(F)(F)F)ccc12: inactive
CC(=O)Oc1cccc(N2C(=O)c3cccc4c([N+](=O)[O-])ccc(c34)C2=O)c1: inactive

Q: Find GFP fluorescence, higher = induction for Cc1[nH][nH]c(=O)c1C(c1ccc(-c2ccc(Cl)cc2)o1)c1c(C)[nH][nH]c1=O on Citrate synthase, peroxisomal (Saccharomyces cerevisiae (strain ATCC 204508 / S288c)) and write it down.
Ans: inactive

Q: Find GFP fluorescence, higher = induction for O=C(Oc1c(Cl)cc(Cl)c2cccnc12)c1cccs1 on Citrate synthase, peroxisomal (Saccharomyces cerevisiae (strain ATCC 204508 / S288c)) and write it down.
Ans: inactive

Q: Find GFP fluorescence, higher = induction for Cc1ccc(S(=O)(=O)N2CCCC2C(=O)NCc2ccncc2)cc1 (stereo not drawn) on Citrate synthase, peroxisomal (Saccharomyces cerevisiae (strain ATCC 204508 / S288c)) and write it down.
Ans: inactive

Q: Find GFP fluorescence, higher = induction for O=C(Nc1nc(-c2ccccn2)cs1)C1COc2ccccc2O1 (stereo not drawn) on Citrate synthase, peroxisomal (Saccharomyces cerevisiae (strain ATCC 204508 / S288c)) and write it down.
Ans: inactive
